Experiment: Clinical study #1: PK of edaravone oral formulation (formula #1), fasted vs 30 min after high-fat meal
Type: in vivo
Details: male, human, plasma, 200 mg, 200 mg oral, formula #1, fasted, mean (n = 6)
quantity name: Cmax

1) CC1=NN(c2ccccc2)C(=O)C1
4930 ng/mL

###

Experiment: Clinical study #4: PK of edaravone oral formulation (formula #2), high-fat meal 1 hour after administration vs fasted
Format: in vivo, human
Conditions: male, human, plasma, po, 100 mg, 100 mg oral, formula #2, fasted, mean (n = 9)
quantity name: Cmax

1. CC1=NN(c2ccccc2)C(=O)C1 [Edaravone, 3-methyl-1-phenyl-2-pyrazolin-5-one]
1810 ng/mL

###

Test: Clinical study #3: PK of edaravone oral formulation (formula #3), fasted vs after high-fat, standard or light meal; analysis of variance
Assay type: in vivo, human
Settings: male, human, plasma, po, 105 mg, 105 mg oral, 2 hours after light meal, analysis of variance; read-out: Cmax Least-square mean
Description: Effects of meal consumption before administration of the edaravone oral formulation on the pharmacokinetics of edaravone were evaluated. Specifically, clinical studies #1, #2, and #3 described below were conducted on separate days in Japanese healthy adult male subjects. […]
quantity name: Cmax (ng/mL)

1) CC1=NN(c2ccccc2)C(=O)C1 [Edaravone, 3-methyl-1-phenyl-2-pyrazolin-5-one]
1660

###

Experiment: Clinical study #11: PK of edaravone oral formulation (formula #3) via nasopharyngeal gastric tube vs oral in healthy adults
Assay type: in vivo, human
Conditions: human, plasma, other: nasopharyngeal gastric tube (NG tube), 105 mg, Nasopharyngeal gastric tube, analysis of variance; read-out: AUC0-∞ Least-square mean
Description: Pharmacokinetics of edaravone in administration of the edaravone oral formulation via a PEG tube was evaluated in 36 healthy adults. Specifically, performing gastrostomy in healthy adults is difficult, thus a nasopharyngeal gastric tube (NG tube), which allows the administration into the stomach via a tube in the same manner, was used as a model of administration via a percutaneous endoscopic gastrostomy tube (PEG tube), and a clinical study #11 described below was conducted. […]
quantity name: AUC(0-inf) (ng·h/mL)

1. CC1=NN(c2ccccc2)C(=O)C1
2500

###

Test: Clinical study #3: PK of edaravone oral formulation (formula #3), fasted vs after high-fat, standard or light meal; analysis of variance
Assay type: in vivo, human
Details: male, human, plasma, po, 105 mg, 105 mg oral, formula #3, 4 h after standard meal, mean (n = 16)
Protocol: Effects of meal consumption before administration of the edaravone oral formulation on the pharmacokinetics of edaravone were evaluated. Specifically, clinical studies #1, #2, and #3 described below were conducted on separate days in Japanese healthy adult male subjects. […]
quantity name: half-life (h)

1. CC1=NN(c2ccccc2)C(=O)C1
9.05

###

Assay: Clinical study #3: PK of edaravone oral formulation (formula #3), fasted vs after high-fat, standard or light meal; analysis of variance
Assay type: in vivo, human
Details: male, human, plasma, po, 105 mg, 105 mg oral, 2 hours after light meal, analysis of variance; read-out: AUC0-∞ Least-square mean
quantity name: AUC(0-inf) (ng·h/mL)

1) CC1=NN(c2ccccc2)C(=O)C1 [Edaravone, 3-methyl-1-phenyl-2-pyrazolin-5-one]
1880

###

Test: Clinical study #11: PK of edaravone oral formulation (formula #3) via nasopharyngeal gastric tube vs oral in healthy adults
Format: in vivo, human
Conditions: human, plasma, other: nasopharyngeal gastric tube (NG tube); formula #3 (105 mg), Nasopharyngeal gastric tube, fasted (N = 36); read-out: tmax (median)
quantity name: Tmax (min)

1) CC1=NN(c2ccccc2)C(=O)C1
15

###

Experiment: Clinical study #1: PK of edaravone oral formulation (formula #1), fasted vs 30 min after high-fat meal
Assay type: in vivo
Conditions: male, human, plasma, 200 mg, 200 mg oral, formula #1, 30 min after high-fat meal, mean (n = 5)
quantity name: Tmax

1) CC1=NN(c2ccccc2)C(=O)C1
1.35 h

###

Test: Clinical study #3: PK of edaravone oral formulation (formula #3), fasted vs after high-fat, standard or light meal; analysis of variance
Format: in vivo, human
Settings: male, human, plasma, po, 105 mg, 105 mg oral, 8 hours after high-fat meal, analysis of variance; read-out: AUC0-∞ Least-square mean
quantity name: AUC(0-inf) (ng·h/mL)

1) CC1=NN(c2ccccc2)C(=O)C1
2120

###

Test: Clinical study #4: PK of edaravone oral formulation (formula #2), high-fat meal 1 hour after administration vs fasted
Assay type: in vivo, human
Details: male, human, plasma, po, 100 mg, 100 mg oral, 1 h before high-fat meal (n = 9); read-out: AUC0-1h
quantity name: partial AUC (ng·h/mL)

1) CC1=NN(c2ccccc2)C(=O)C1 [Edaravone, 3-methyl-1-phenyl-2-pyrazolin-5-one]
772

###

Test: Clinical study #9: PK of edaravone oral formulation (formula #3) in healthy adults (reference group), oral, fasted
Format: in vivo
Conditions: both sexes, human, plasma, 105 mg oral, healthy (n = 42), mean, before weight correction
quantity name: Tmax (min)

1. CC1=NN(c2ccccc2)C(=O)C1
26.4

###

Experiment: Clinical study #11: PK of edaravone oral formulation (formula #3) via nasopharyngeal gastric tube vs oral in healthy adults
Format: in vivo, human
Details: human, plasma, po, 105 mg, Oral, analysis of variance; read-out: Cmax Least-square mean
quantity name: Cmax (ng/mL)

1) CC1=NN(c2ccccc2)C(=O)C1
2310

###

Assay: Clinical study #10: PK of edaravone oral formulation (formula #7, 120 mg), standard meal 30 minutes after administration vs fasted
Assay type: in vivo, human
Settings: male, human, plasma, po, 120 mg, 120 mg oral, formula #7, fasted (n = 6), mean
Experimental: Effects of meal consumption 30 minutes after administration of the edaravone oral formulation on the pharmacokinetics of edaravone were evaluated. […] On the other hand, as a fasted group for reference, the edaravone oral formulation was administered orally to different subjects in fasted conditions, blood samples were collected, and the concentrations of unchanged edaravone in plasma were measured in the same manner.
quantity name: half-life

1. CC1=NN(c2ccccc2)C(=O)C1 [Edaravone, 3-methyl-1-phenyl-2-pyrazolin-5-one]
308 min

###

Assay: Clinical Trial #12: PK after oral administration of edaravone solution and suspension
Conditions: male, human, in vivo, Cohort S1, 60 mg, Solution, fasting (N = 6), mean
quantity name: Cmax (ng/mL)

1) CC1=NN(c2ccccc2)C(=O)C1 [Edaravone, 3-methyl-1-phenyl-2-pyrazolin-5-one]
755

###

Test: Clinical study #3: PK of edaravone oral formulation (formula #3), fasted vs after high-fat, standard or light meal; analysis of variance
Type: in vivo, human
Settings: male, human, plasma, po, 105 mg, 105 mg oral, formula #3, 8 h after high-fat meal, mean (n = 16)
quantity name: half-life (h)

1) CC1=NN(c2ccccc2)C(=O)C1
7.38

###

Assay: Clinical study #3: PK of edaravone oral formulation (formula #3), fasted vs after high-fat, standard or light meal; analysis of variance
Assay type: in vivo, human
Conditions: male, human, plasma, po, 105 mg, 105 mg oral, formula #3, 8 h after high-fat meal, mean (n = 16); read-out: Cmax
quantity name: Cmax (ng/mL)

1) CC1=NN(c2ccccc2)C(=O)C1
2520

###

Assay: Clinical study #3: PK of edaravone oral formulation (formula #3), fasted vs after high-fat, standard or light meal; analysis of variance
Format: in vivo, human
Conditions: male, human, plasma, po, 105 mg, 105 mg oral, 4 hours after standard meal, analysis of variance; read-out: Cmax Least-square mean
quantity name: Cmax

1. CC1=NN(c2ccccc2)C(=O)C1 [Edaravone, 3-methyl-1-phenyl-2-pyrazolin-5-one]
1760 ng/mL

###

Assay: Clinical study #4: PK of edaravone oral formulation (formula #2), high-fat meal 1 hour after administration vs fasted
Format: in vivo, human
Settings: male, human, plasma, po, 100 mg, 100 mg oral, formula #2, 1 h before high-fat meal, mean (n = 9)
quantity name: Cmax (ng/mL)

1. CC1=NN(c2ccccc2)C(=O)C1 [Edaravone, 3-methyl-1-phenyl-2-pyrazolin-5-one]
1500

###

Assay: Clinical study #11: PK of edaravone oral formulation (formula #3) via nasopharyngeal gastric tube vs oral in healthy adults
Assay type: in vivo, human
Conditions: human, plasma, po, 105 mg, formula #3 (105 mg), Oral, fasted (N = 36), mean; read-out: Cmax
Procedure: Pharmacokinetics of edaravone in administration of the edaravone oral formulation via a PEG tube was evaluated in 36 healthy adults. Specifically, performing gastrostomy in healthy adults is difficult, thus a nasopharyngeal gastric tube (NG tube), which allows the administration into the stomach via a tube in the same manner, was used as a model of administration via a percutaneous endoscopic gastrostomy tube (PEG tube), and a clinical study #11 described below was conducted. […]
quantity name: Cmax (ng/mL)

1) CC1=NN(c2ccccc2)C(=O)C1
2470

###

Assay: Clinical study #10: PK of edaravone oral formulation (formula #7, 120 mg), standard meal 30 minutes after administration vs fasted
Format: in vivo, human
Conditions: male, human, plasma, po, 120 mg, 120 mg oral, formula #7, 30 min before low-fat meal (n = 6), mean
quantity name: Tmax (min)

1. CC1=NN(c2ccccc2)C(=O)C1
25.2
